- Tested On: Amine oxidase [flavin-containing] B (Rattus norvegicus)
- Sequence (P19643 whole entry): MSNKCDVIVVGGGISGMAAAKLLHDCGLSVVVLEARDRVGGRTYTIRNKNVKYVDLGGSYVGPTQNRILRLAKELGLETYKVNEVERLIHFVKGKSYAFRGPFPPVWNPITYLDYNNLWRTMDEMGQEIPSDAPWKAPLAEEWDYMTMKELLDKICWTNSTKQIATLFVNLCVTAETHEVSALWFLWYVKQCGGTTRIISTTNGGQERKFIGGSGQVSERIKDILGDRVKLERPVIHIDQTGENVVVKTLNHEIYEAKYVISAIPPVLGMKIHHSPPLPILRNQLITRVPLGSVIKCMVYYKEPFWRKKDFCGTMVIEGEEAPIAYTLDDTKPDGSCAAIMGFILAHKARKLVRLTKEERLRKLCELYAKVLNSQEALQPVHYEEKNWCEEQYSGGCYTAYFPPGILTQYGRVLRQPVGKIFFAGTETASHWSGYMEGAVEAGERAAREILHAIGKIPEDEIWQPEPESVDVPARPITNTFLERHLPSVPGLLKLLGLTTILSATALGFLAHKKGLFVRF
- Protocol Details: Inhibitory activity against rat brain mitochondrial Monoamine oxidase B at 10 uM
Metric Name: inhibition at 10 µM (%)

O=C1c2ccccc2S(=O)(=O)c2cc(-c3nn[nH]n3)ccc21 [DOXANTRAZOLE]    1

a. CCc1ccc2c(c1)C(=O)c1ccc(C3=NCCN3)cc1S2(=O)=O
b. Cc1ccc2c(c1)C(=O)c1ccc(C3=NCCN3)cc1S2(=O)=O
Could you kindly indicate whether a or b has the higher inhibition at 10 µM value? Pick one; state its label.
a

###

- Tested On: Amine oxidase [flavin-containing] A (Rattus norvegicus, UniProt P21396)
- Sequence (P21396 whole entry): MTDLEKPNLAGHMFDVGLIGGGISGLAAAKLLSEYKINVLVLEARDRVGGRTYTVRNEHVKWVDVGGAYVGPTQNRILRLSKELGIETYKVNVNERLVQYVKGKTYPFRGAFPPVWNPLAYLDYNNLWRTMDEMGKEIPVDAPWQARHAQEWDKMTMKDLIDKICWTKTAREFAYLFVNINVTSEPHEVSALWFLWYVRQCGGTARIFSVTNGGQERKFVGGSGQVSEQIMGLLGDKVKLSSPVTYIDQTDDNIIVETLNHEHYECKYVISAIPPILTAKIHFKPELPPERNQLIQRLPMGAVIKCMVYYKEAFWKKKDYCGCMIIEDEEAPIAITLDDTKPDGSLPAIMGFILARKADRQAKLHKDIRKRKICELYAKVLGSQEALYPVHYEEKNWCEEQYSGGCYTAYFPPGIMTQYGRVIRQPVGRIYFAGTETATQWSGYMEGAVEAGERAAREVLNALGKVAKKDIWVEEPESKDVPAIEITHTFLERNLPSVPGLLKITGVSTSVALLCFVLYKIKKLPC
- Protocol Details: Inhibitory concentration against rat brain mitochondrial Monoamine oxidase A at 1 uM
Metric Name: inhibition at 1 µM (%)

c1cc2c3c([nH]c2cc1C1=NCCN1)CCCC3    20

1. O=S1(=O)c2ccccc2C(O)c2ccc(C3=NCCN3)cc21 (stereo not drawn)
2. O=S1(=O)c2ccccc2-c2cc(C3=NCCN3)ccc21
Input pair: 1 , 2 . Output: entry with lower inhibition at 1 µM. State your choice using its label.
1
